Where do these numbers come from? They come from ChEMBL document CHEMBL3627617.

Target: UniProt:P00533
Sequence (P00533 whole entry): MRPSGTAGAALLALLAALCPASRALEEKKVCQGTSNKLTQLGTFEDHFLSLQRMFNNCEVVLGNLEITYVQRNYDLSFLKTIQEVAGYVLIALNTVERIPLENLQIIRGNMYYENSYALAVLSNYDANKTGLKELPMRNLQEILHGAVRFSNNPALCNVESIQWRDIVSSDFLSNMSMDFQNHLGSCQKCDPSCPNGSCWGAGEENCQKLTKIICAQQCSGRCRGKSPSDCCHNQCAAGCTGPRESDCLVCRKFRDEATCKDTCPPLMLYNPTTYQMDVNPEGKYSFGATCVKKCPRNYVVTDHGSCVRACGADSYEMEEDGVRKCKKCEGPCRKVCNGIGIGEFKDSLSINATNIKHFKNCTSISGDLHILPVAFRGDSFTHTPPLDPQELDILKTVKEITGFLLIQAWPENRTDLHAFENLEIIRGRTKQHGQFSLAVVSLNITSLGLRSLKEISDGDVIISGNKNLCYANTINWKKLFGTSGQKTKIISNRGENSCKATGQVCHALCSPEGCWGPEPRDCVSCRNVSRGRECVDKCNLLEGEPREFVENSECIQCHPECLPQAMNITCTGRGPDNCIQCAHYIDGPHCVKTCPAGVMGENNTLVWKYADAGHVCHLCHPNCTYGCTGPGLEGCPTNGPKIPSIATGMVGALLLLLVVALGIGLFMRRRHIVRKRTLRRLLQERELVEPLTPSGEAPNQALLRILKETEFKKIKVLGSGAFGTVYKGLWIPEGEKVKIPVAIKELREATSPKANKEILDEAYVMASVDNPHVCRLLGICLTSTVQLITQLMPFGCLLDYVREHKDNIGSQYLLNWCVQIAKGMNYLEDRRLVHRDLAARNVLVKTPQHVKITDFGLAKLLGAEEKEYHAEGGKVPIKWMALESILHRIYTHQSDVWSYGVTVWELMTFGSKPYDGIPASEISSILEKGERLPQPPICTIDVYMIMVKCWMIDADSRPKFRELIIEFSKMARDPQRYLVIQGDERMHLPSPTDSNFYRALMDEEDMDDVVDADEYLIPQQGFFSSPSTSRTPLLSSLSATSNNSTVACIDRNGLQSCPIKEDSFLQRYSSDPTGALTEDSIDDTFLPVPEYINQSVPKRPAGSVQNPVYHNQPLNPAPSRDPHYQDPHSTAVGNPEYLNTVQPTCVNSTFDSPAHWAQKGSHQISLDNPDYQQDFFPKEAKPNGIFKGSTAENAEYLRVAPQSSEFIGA
READOUT LABEL: IC50 (µM)

Clc1ccc(Nc2ncc3c(n2)-c2ccc(Cl)cc2SC3)cc1 ... 45.7
